target: Leucine-rich repeat serine/threonine-protein kinase 2 (Homo sapiens, UniProt Q5S007, G2019S); assay: Inhibition of GST-tagged LRRK2 G2019S mutant (970 to 2527 amino acid residues) (unknown origin) assessed as inhibition of biotinylated-LRRKtide phosphorylation by HTRF assay in presence of ATP
Sequence (Q5S007 whole entry G2019S, the tested form may be a part): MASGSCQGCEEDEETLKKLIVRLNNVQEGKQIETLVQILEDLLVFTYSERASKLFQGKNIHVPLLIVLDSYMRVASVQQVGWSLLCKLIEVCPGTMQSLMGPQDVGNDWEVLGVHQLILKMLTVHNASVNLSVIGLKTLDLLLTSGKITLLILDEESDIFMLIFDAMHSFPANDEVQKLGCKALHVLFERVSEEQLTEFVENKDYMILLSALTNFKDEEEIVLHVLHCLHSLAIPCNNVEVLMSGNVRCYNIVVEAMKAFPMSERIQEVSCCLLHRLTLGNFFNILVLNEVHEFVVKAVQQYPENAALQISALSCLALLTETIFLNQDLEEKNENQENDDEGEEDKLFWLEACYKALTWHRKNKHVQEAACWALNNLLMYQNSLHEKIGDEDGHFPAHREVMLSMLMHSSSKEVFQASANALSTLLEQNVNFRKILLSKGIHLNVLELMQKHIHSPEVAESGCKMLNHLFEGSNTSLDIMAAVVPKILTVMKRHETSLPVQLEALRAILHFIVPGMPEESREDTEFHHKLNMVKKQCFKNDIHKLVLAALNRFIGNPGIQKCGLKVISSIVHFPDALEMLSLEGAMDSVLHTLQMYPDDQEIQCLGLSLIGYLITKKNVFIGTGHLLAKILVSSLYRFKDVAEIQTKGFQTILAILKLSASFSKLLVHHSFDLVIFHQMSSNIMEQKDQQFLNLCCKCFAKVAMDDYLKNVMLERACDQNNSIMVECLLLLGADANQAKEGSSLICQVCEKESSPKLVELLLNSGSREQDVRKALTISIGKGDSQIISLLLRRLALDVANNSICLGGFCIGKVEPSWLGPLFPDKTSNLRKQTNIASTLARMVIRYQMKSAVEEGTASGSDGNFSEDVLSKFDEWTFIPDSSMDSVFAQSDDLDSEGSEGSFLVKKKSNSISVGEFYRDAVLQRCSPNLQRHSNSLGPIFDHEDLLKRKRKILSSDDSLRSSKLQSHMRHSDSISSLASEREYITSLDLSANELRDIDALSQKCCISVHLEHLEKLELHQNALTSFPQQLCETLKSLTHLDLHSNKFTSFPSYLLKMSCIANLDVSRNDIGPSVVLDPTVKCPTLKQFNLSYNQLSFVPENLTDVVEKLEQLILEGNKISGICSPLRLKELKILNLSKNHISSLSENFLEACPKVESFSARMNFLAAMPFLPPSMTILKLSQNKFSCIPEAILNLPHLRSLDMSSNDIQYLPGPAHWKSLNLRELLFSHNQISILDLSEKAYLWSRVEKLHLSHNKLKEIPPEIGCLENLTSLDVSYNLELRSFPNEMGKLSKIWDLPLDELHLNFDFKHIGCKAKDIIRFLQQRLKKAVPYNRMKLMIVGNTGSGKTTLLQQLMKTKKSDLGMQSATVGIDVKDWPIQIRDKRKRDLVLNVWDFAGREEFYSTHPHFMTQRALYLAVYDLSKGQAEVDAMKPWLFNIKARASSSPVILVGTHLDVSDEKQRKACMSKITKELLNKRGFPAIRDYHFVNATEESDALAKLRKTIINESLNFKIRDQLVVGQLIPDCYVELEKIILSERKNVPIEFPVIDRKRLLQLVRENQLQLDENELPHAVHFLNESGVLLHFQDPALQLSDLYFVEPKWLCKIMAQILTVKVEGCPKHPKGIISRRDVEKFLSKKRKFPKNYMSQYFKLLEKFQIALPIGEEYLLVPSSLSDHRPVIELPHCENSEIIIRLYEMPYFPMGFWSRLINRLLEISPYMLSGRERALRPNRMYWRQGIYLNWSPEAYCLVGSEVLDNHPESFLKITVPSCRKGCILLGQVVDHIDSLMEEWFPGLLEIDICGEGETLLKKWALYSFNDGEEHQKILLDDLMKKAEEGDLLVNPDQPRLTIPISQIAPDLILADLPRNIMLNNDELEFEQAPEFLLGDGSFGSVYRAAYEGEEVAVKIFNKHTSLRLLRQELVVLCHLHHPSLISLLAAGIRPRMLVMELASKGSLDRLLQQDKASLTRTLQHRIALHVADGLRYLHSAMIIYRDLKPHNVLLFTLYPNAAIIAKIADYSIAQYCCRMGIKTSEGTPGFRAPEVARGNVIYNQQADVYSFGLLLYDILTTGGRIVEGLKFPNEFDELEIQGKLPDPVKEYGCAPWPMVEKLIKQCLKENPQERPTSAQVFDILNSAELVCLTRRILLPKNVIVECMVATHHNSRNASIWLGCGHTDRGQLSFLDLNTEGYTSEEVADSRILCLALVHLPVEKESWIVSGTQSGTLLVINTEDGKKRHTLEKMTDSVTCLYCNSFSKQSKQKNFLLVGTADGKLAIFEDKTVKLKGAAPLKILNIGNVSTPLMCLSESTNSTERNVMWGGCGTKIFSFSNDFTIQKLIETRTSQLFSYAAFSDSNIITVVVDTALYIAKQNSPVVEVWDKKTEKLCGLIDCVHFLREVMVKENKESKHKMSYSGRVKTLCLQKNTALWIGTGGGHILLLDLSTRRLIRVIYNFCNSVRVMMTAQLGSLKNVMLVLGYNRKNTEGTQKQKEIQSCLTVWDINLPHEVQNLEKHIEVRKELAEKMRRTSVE
pIC50: −log10 of the molar value.
quantity-name: pIC50

input: I would be grateful if you could share the reported pIC50 for `CNC(=O)c1nnc2cc(-c3ccc(S(C)(=O)=O)cc3)ccc2c1N[C@H](C)C1CC1` .
output: 6.61

(1) CC(C)Nc1c(C(N)=O)nnc2cc(-c3cn[nH]c3)ccc12
(2) CNc1c(C(N)=O)nnc2cc(-c3ccc(S(C)(=O)=O)cc3)ccc12
input: I need your help: which of the pair 1 , 2 has higher pIC50? Return value: the label identifying the chosen record.
output: 1

(P) CS(=O)(=O)c1ccc(-c2ccc3c(N)c(C(N)=O)nnc3c2)cc1
(Q) CC(C)Nc1c(C(N)=O)nnc2cc(-c3ccc(S(C)(=O)=O)cc3)ccc12
(R) CCNc1c(C(N)=O)nnc2cc(-c3ccc(S(C)(=O)=O)cc3)ccc12
input: In this exercise, place the 3 molecules in ascending sequence of their recorded pIC50. In your reply, arrange the labels in the requested order.
output: P, R, Q

(I) CC(C)Nc1c(C(N)=O)nnc2cc(-c3cnsc3)ccc12
(II) Cc1c(-c2ccncc2)ccc2c(NC(C)C)c(C(N)=O)nnc12
input: // task: argmin of pIC50 over [ I , II ] Return value: the label identifying the chosen record.
output: II
